TGI for assorted compounds
Test system: UACC-257 melanoma
Assay: NCI tumour cell line growth inhibition, 384-well format
Residues, ends and D or L forms follow the SMILES beside them. *: point of attachment. Cbz = O=C(OCc1ccccc1)*
Write down the numeric answer in nM and omit the unit.

Input: Consider the compound "CN(C)Cc1c(C(=O)NCCOc2ccc(C(=O)NO)cc2)oc2ccccc12" and give its measured TGI.
Output: 194

Next:
Input: Report TGI for CC(C)C[C@@H](C=O)NC(=O)[C@H](CC(C)C)NC(=O)[C@H](CC(C)C)NC(=O)OCc1ccccc1 (Cbz-Leu-Leu-Leu-aldehyde) please.
Output: 263

---

System: OVCAR-5 ovarian
Assay: NCI tumour cell line growth inhibition, 384-well format; in the data active = GI50 below about 0.43 µM; inactive = the rest
Please answer using one outcome listed in label 1 (active), label 0 (inactive)

A selection of reference data follows.
Input: Hey, what did the test say about "CN(C)Cc1c(C(=O)NCCOc2ccc(C(=O)NO)cc2)oc2ccccc12" ?
Output: label 1

Input: Cool, now "Cc1sc2c(c1C)C(c1ccc(Cl)cc1)=N[C@@H](CC(=O)NCCCN1CCN(C)CC1)c1nnc(C)n1-2"
Output: label 0

Input: Next record, please: "C=CC(=O)N1CC[C@H](n2nc(C#Cc3cc(OC)cc(OC)c3)c3c(N)ncnc32)C1"
Output: label 0

Okay, now this compound:
Input: Assay result, entry "Cc1[nH]nc2ncc(C(=O)N3CCC[C@H]3c3ccc(Cl)cc3)cc12" — outcome?
Output: label 0
